biological target: human Fc (human); assay: ELISA, negative control
# maps each entry to its optical density

BINDER	optical density [OD]
366_B09 (antibody, V domains shown) VH: EVQLLESGGGLVQPGGSLRLSCAASGFTFSDYGMHWVRQAPGKGLEWVSSINYNSGYKSYADSVKGRFTISRDNSKNTLYLQMNSLRAEDTAVYYCARAATWHDTHLDYWGQGTLVTVSS VL: DIQMTQSPSSLSASVGDRVTITCRASQSILTYLNWYQQKPGKAPKLVIYAATSRHSGVPSRFSGSGSGTDFTLTISSLQPEDFATYYCQQSYDSPLTFGGGTKVEIK	0.283
369_D06 (antibody, V domains shown) VH: EVQLLESGGGLVQPGGSLRLSCAASGFTFDSYSMNWVRQAPGKGLEWVSGINYNGGYTGYADSVKGRFTISRDNSKNTLYLQMNSLRAEDTAVYYCARSATWHDTHLDYWGQGTLVTVSS VL: DIQMTQSPSSLSASVGDRVTITCRASQSILTYLNWYQQKPGKAPKLLIYAATSRASGVPSRFSGSGSGTDFTLTISSLQPEDFATYYCQQSYETPLTFGGGTKVEIK	0.324
368_B04 (antibody, V domains shown) VH: EVQLLESGGGLVQPGGSLRLSCAASGFTFDSYGMHWVRQAPGKGLEWVSSINYNGGYTSYADSVKGRFTISRDNSKNTLYLQMNSLRAEDTAVYYCARAATWHDTHLDYWGQGTLVTVSS VL: DIQMTQSPSSLSASVGDRVTITCRASQSIVSYLNWYQQKPGKAPKLVIYAATSRASGVPSRFSGSGSGTDFTLTISSLQPEDFATYYCQQSYENPLTFGGGTKVEIK	0.304

The origin of these recorded values is patent US20210380703A1.
